The measurements presented in this section are drawn from ChEMBL document CHEMBL1122886.

species on record: Mus musculus; experiment: Dose producing greatest increase in life span of mice bearing lymphoid leukemia, treatment schedule is 1-5 qd.; format: functional
Recorded Optimal dose by entry

{"columns": ["COMPOUND", "Optimal dose"],
 "data": [
  ["CCCCCCCCCCCCCCCCOP(=O)(O)OP(=O)(O)OC[C@H]1OC(n2ccc(N)nc2=O)[C@@H](O)[C@@H]1O (some centres undefined)", "40 mg/kg/day"],
  ["Nc1ccn(C2O[C@H](COP(=O)(O)OCC3CCCCC3)[C@@H](O)[C@@H]2O)c(=O)n1 (some centres undefined)", "40 mg/kg/day"],
  ["Nc1ccn([C@@H]2O[C@H](CO)[C@@H](O)[C@@H]2O)c(=O)n1 [CYTARABINE]", "9.2 mg/kg/day"],
  ["CC12CCC(=O)C=C1CCC1C2C(O)CC2(C)C1CC[C@@H]2C(=O)COP(=O)(O)OP(=O)(O)OC[C@H]1OC(n2ccc(N)nc2=O)[C@@H](O)[C@@H]1O (some centres undefined)", "60 mg/kg/day"],
  ["CC12CCC(=O)C=C1CCC1C2C(=O)CC2(C)C1CC[C@]2(O)C(=O)COP(=O)(O)OP(=O)(O)OC[C@H]1OC(n2ccc(N)nc2=O)[C@@H](O)[C@@H]1O (some centres undefined)", "40 mg/kg/day"],
  ["CCCCCCCCCCCCCCCCOP(=O)(O)OC[C@H]1O[C@@H](n2ccc(N)nc2=O)[C@@H](O)[C@@H]1O", "20 mg/kg/day"],
  ["CC12CCC(=O)C=C1CCC1C2CCC2(C)C1CC[C@@H]2C(=O)COP(=O)(O)OP(=O)(O)OC[C@H]1OC(n2ccc(N)nc2=O)[C@@H](O)[C@@H]1O (some centres undefined)", "20 mg/kg/day"],
  ["CC12CCC(=O)C=C1CCC1C2CCC2(C)C1CC[C@]2(O)C(=O)COP(=O)(O)OP(=O)(O)OC[C@H]1OC(n2ccc(N)nc2=O)[C@@H](O)[C@@H]1O (some centres undefined)", "60 mg/kg/day"],
  ["Nc1ccn([C@@H]2O[C@H](COP(=O)(O)OCCC34CC5CC(CC(C5)C3)C4)[C@@H](O)[C@@H]2O)c(=O)n1", "40 mg/kg/day"]
]}

---

species: Mus musculus; assay: Weight change observed on day 8 in mice bearing lymphoid leukemia, treatment schedule is 1-5 qd.; assay type: functional
RESULT TYPE: Weight change (g mouse-1 on day 8)

{"columns": ["COMPOUND", "RESULT VALUE"],
 "data": [
  ["CCCCCCCCCCCCCCCCOP(=O)(O)OP(=O)(O)OC[C@H]1OC(n2ccc(N)nc2=O)[C@@H](O)[C@@H]1O (some centres undefined)", 2.92],
  ["CC12CCC(=O)C=C1CCC1C2C(O)CC2(C)C1CC[C@@H]2C(=O)COP(=O)(O)OP(=O)(O)OC[C@H]1OC(n2ccc(N)nc2=O)[C@@H](O)[C@@H]1O (some centres undefined)", -0.45],
  ["Nc1ccn([C@@H]2O[C@H](CO)[C@@H](O)[C@@H]2O)c(=O)n1 [CYTARABINE]", -2.66],
  ["CC12CCC(=O)C=C1CCC1C2C(=O)CC2(C)C1CC[C@]2(O)C(=O)COP(=O)(O)OP(=O)(O)OC[C@H]1OC(n2ccc(N)nc2=O)[C@@H](O)[C@@H]1O (some centres undefined)", -0.78],
  ["CC12CCC(=O)C=C1CCC1C2CCC2(C)C1CC[C@]2(O)C(=O)COP(=O)(O)OP(=O)(O)OC[C@H]1OC(n2ccc(N)nc2=O)[C@@H](O)[C@@H]1O (some centres undefined)", -2.15],
  ["CC12CCC(=O)C=C1CCC1C2CCC2(C)C1CC[C@@H]2C(=O)COP(=O)(O)OP(=O)(O)OC[C@H]1OC(n2ccc(N)nc2=O)[C@@H](O)[C@@H]1O (some centres undefined)", -3.73],
  ["Nc1ccn([C@@H]2O[C@H](COP(=O)(O)OCCC34CC5CC(CC(C5)C3)C4)[C@@H](O)[C@@H]2O)c(=O)n1", 0.87],
  ["Nc1ccn(C2O[C@H](COP(=O)(O)OCC3CCCCC3)[C@@H](O)[C@@H]2O)c(=O)n1 (some centres undefined)", -0.67],
  ["CCCCCCCCCCCCCCCCOP(=O)(O)OC[C@H]1O[C@@H](n2ccc(N)nc2=O)[C@@H](O)[C@@H]1O", -4.75]
]}
